Exercise: for every item that follows, state its recorded Kd.
- tgt: T1, NPNA2 peptide (Ac-[residues removed]-NH2) (Plasmodium falciparum (synthetic CSP …)
- T1 construct: source: synthetic peptide, bought: Innopep Inc
- assaySummary: ITC; peptide in the syringe, Fab (~10 uM) in the cell; DPBS; 25 C; single-site binding model; triplicate; apparent affinity
- experimentalConditions: both partners purified
Numbers only here, please. The scale is µM.

What does the record list as Kd for Fab397 (Fab, V domains shown, also called mAb397; source: ExpiCHO cells, purified (HiTrap Protein G, SEC)) VH: EVQLVKSGGGLVKPGGSLRLSCAVSGFTFTDAWMSWVRQAPGKGPEWVGRIKSNPDGGTTDYAAPVRGRFTISRDDSKNTLYLQMNNLKTEDTAVYYCITDRDFYRSGGSWGQGTLVTV VL: DIVMTQSPLSLPVTPGEPASISCRSRQSLLYSNGDNYLDWYLQKPGQSPQLLIYLGSNRAPGVPDRFSGSGSGTDFTLKISRVEAEDVGVYYCMQTLQTPHTFGQGTKLEIK ?
2.74

Name the recorded Kd for Fab224 (Fab, V domains shown, also called mAb224; source: ExpiCHO cells, purified (HiTrap Protein G, SEC)) VH: EVQLVESGGGLVQPGRSLRLPCTASGFSFGDHAMSWVRQAPGKGLEWVGFIRKTTYGATTHYAAAVRGRFTISRDDSKSIVYLQMNSLKTEDTAVYFCTRVQLDYGPGYQYYGMDVWGQGTTVTVSS VL: ESVLTQPPSVSGAPGQRVTISCTGMNSNIGAGYDVYWYQQLPGRAPKLLIYGNSNRPSGVPDRFSGSRSGTSASLAITGLQAEDEADYYCQSYDTSLNGWAFGGGTKLTVL .
14.2
